# Test system: middle cerebral artery (MCA) occlusion model mice
# ASSAY_PROCEDURE: Evaluation of therapeutic effect on ischemia-reperfusion brain damage (MCA occlusion model, single i.v. dose after reperfusion)
# Assay type: in vivo, male ddY mice
# CONDITION_SUMMARY: single i.v. dose 20 μmol/kg 6 hours after start of ischemia, infarct volume at 24 h
# Excerpt: Thus, a model evaluated for therapeutic effect of ischemia-reperfusion brain damage was constructed by administering a drug after reperfusion in the MCA occlusion model, and the effect of the test compound as a therapeutic drug was investigated: the therapeutic effect evaluation model reflects the direct damage by reactive oxygen species (ROIs) and the process to the secondary oxidative stress and inflammatory response due to ROIs. […]
MEASURE: suppression of the infarct volume

Query: Param item = CC(C)=CCC/C(C)=C/CC/C(C)=C/CC[C@]1(C)CCc2c(C)c(OC(=O)CN(C)C)c(C)c(C)c2O1.Cl [α-T3DMG] ; retrieve measured suppression of the infarct volume.
Result: significantly suppressed

Query: Param item = CC(C)=CCCC(C)=CCCC(C)=CCOC(=O)CN(C)C.Cl [FODMG] ; retrieve measured suppression of the infarct volume.
Result: significantly suppressed

Query: Param item = Cc1c(OC(=O)CN(C)C)cc2c(c1C)O[C@](C)(CCC[C@H](C)CCC[C@H](C)CCCC(C)C)CC2.Cl [γ-TDMG] ; retrieve measured suppression of the infarct volume.
Result: significantly suppressed

Query: Param item = Cc1c(O)cc2c(c1C)O[C@](C)(CCC[C@H](C)CCC[C@H](C)CCCC(C)C)CC2 [γ-Toc, 2R-γ-tocopherol, reference compound] ; retrieve measured suppression of the infarct volume.
Result: significantly suppressed

Values compiled from patent US8242302B2.
